Run description: Half-life in ICR mouse at 10 mg/kg, po measured upto 8 hrs by LC-MS/MS analysis
Type: ADME, organism-based
Run parameters: in vivo

Compound	half-life [min]
CCCCC(O)c1ccc(Br)cc1-c1nn[nH]n1 (stereo unspecified)	30.6

====

Run description: Metabolic stability in monkey liver microsomes assessed as half life at 50 uM preincubated with NADPH for 5 mins followed by compound addition and measured upto 60 mins by LC-MS/MS analysis
Type: ADME, Macaca mulatta, Microsome
Run parameters: rhesus monkey
Property measured: half-life at 50 µM

Compound	Obs value
CCCCC(O)c1ccc(Br)cc1-c1nn[nH]n1 (stereo unspecified)	> 3.11 h

====

Run description: Metabolic stability in rat liver microsomes assessed as intrinsic clearance at 50 uM preincubated with NADPH for 5 mins followed by compound addition and measured upto 60 mins by LC-MS/MS analysis
Type: ADME, Microsome
Run parameters: read-out: CLH

Compound	Unit text	microsomal CLint at 50 µM
CCCCC(O)c1ccc(Br)cc1-c1nn[nH]n1 (stereo unspecified)	µL/min/mg	36.3

====

Run description: AUC(0 to t) in ICR mouse at 1 mg/kg, iv measured upto 8 hrs by LC-MS/MS analysis
Format: ADME, organism-based
Run parameters: in vivo
Property measured: AUC(0-t) at 8 h (ng·h/mL)

Compound	Obs value
CCCCC(O)c1ccc(Br)cc1-c1nn[nH]n1 (stereo unspecified)	550

====

Run description: Cmax in Sprague-Dawley rat at 10 mg/kg, po measured upto 8 hrs by LC-MS/MS analysis
Assay type: ADME, organism-based
Run parameters: in vivo, po, 10 mg/kg, 8 h

Compound	Unit text	Cmax
CCCCC(O)c1ccc(Br)cc1-c1nn[nH]n1 (stereo unspecified)	ng/mL	1130

====

Run description: AUC(0 to infinity) in ICR mouse at 10 mg/kg, po measured upto 8 hrs by LC-MS/MS analysis
Format: ADME, organism-based
Run parameters: in vivo

Compound	AUC(0-inf) (ng·h/mL)
CCCCC(O)c1ccc(Br)cc1-c1nn[nH]n1 (stereo unspecified)	5590

====

Run description: AUC(0 to t) in Sprague-Dawley rat at 10 mg/kg, po measured upto 8 hrs by LC-MS/MS analysis
Format: ADME, organism-based
Run parameters: in vivo
A collection of compounds and their measured AUC(0-t) at 8 h

Compound	AUC(0-t) at 8 h
CCCCC(O)c1ccccc1-c1nnn(C)n1 (configuration not stated)	39.9 ng·h/mL
CCCCC(O)c1cc(Br)ccc1-c1nn[nH]n1 (configuration not stated)	2670 ng·h/mL
CCCCC(O)c1ccc(Br)cc1-c1nn[nH]n1 (configuration not stated)	6990 ng·h/mL
CCCCCC(O)c1ccc(Br)cc1-c1nn[nH]n1 (configuration not stated)	2670 ng·h/mL
CCCCC(O)c1ccc(F)cc1-c1nn[nH]n1 (configuration not stated)	2670 ng·h/mL
CCCCC(O)c1ccccc1-c1nn[nH]n1 (configuration not stated)	26500 ng·h/mL
CCCCC(O)c1ccc(Cl)cc1-c1nn[nH]n1 (configuration not stated)	2670 ng·h/mL

====

Run description: Metabolic stability in monkey liver microsomes assessed as intrinsic clearance at 50 uM preincubated with NADPH for 5 mins followed by compound addition and measured upto 60 mins by LC-MS/MS analysis
Format: ADME, Macaca mulatta, Microsome
Run parameters: rhesus monkey, read-out: CLH
Property measured: microsomal CLint at 50 µM

Molecule	Obs value
CCCCC(O)c1ccc(Br)cc1-c1nn[nH]n1 (stereo unspecified)	< 7.4 µL/min/mg
